Tested on: primary melanocytes
protocol.description: Safety, LDH test in primary melanocytes
Assay type: cell-based
particulars: 100 μM, 48 hours, vs Triton X-100
experimental.endpoint: LDH, Primary melanocytes

>  <query.smiles>
O=C(/C=C/c1ccc(Cl)cc1)NCCO

>  <value.measured>
3.93 percentage of positive control

$$$$
>  <query.smiles>
Cc1ccc(/C=C/C(=O)NCCCCCO)cc1

>  <value.measured>
4.22 percentage of positive control

$$$$
>  <query.smiles>
O=C(/C=C/c1ccc(Cl)cc1)NCCCO

>  <value.measured>
5.63 percentage of positive control

$$$$
>  <query.smiles>
O=C(/C=C/c1ccccc1)NCCCCCO

>  <value.measured>
4.68 percentage of positive control

$$$$
>  <query.smiles>
O=C(/C=C/c1ccc(Cl)cc1)NCCCCCO

>  <value.measured>
3.31 percentage of positive control

$$$$

###

Test system: CHO-K1 cells
protocol.description: Cytotoxicity (MTT) in CHO-K1 cells before the micronucleus test
Format: cell-based, Chinese hamster
particulars: 200 μM, 24 hours
Values of % Viability [mean], CHO-K1 strictly less than 90% map to yes (1), and values of at least 90% map to no (0).

>  <molecule>
O=C(/C=C/c1ccc(Cl)cc1)NCCCCCO [Compound A-111]

>  <group>
no (0)

$$$$
>  <molecule>
Cc1ccc(/C=C/C(=O)NCCCCCO)cc1 [H-415/21]

>  <group>
yes (1)

$$$$
>  <molecule>
CC(CO)NC(=O)/C=C/c1ccc(Cl)cc1 (stereo not drawn) [Compound A-102]

>  <group>
yes (1)

$$$$
>  <molecule>
CCC(O)CNC(=O)/C=C/c1ccc(Cl)cc1 (stereo not drawn) [Compound A-67]

>  <group>
yes (1)

$$$$

###

target.under.test: tyrosinase from mushroom (Agaricus bisporus, UniProt C7FF04)
Sequence (C7FF04 2-392): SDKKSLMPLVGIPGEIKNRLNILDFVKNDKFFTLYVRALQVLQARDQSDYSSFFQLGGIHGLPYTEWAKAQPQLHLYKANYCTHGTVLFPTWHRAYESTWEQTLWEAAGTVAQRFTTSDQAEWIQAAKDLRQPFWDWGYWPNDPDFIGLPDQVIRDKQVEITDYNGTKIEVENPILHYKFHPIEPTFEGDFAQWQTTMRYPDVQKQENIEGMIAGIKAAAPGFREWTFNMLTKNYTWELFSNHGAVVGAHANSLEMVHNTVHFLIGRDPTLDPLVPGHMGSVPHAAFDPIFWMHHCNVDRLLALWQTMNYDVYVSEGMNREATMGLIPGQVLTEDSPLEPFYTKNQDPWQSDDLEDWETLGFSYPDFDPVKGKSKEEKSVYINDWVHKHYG
Sequence (G1K3P4 entry or part of it, further chain): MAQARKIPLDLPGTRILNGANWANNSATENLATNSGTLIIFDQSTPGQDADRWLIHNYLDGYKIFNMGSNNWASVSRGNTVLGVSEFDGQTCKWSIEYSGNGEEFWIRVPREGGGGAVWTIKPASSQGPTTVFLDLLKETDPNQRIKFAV
protocol.description: Inhibition of commercial mushroom tyrosinase, substrate L-DOPA
Type: biochemical
particulars: 500 μM; read-out: Tyrosinase inhibition with L-DOPA [%]

>  <compound>
Cc1ccc(/C=C/C(=O)NCCCCO)cc1 [H-411/21]

>  <inhibition at 500 µM [%]>
16.9

$$$$
>  <compound>
O=C(/C=C/c1ccc(Cl)cc1Cl)NCCCCO [H-298/20]

>  <inhibition at 500 µM [%]>
11.2

$$$$
>  <compound>
CCC(CO)NC(=O)/C=C/c1ccc(C)cc1 (centres unmarked) [H-409/21]

>  <inhibition at 500 µM [%]>
21.8

$$$$
>  <compound>
CCC(O)CNC(=O)/C=C/c1ccc(Cl)cc1 (centres unmarked) [Compound A-67]

>  <inhibition at 500 µM [%]>
60.8

$$$$
>  <compound>
O=C(/C=C/c1ccccc1)NCCCCCCO [H-425/21]

>  <inhibition at 500 µM [%]>
34.6

$$$$
>  <compound>
CCC(O)CNC(=O)/C=C/c1ccc(C)cc1 (centres unmarked) [Compound A-63]

>  <inhibition at 500 µM [%]>
21.2

$$$$
>  <compound>
O=C(/C=C/c1ccccc1)NCCO [H-429/21]

>  <inhibition at 500 µM [%]>
30.5

$$$$
>  <compound>
Cc1ccc(/C=C/C(=O)NCCCO)cc1 [H-410/21]

>  <inhibition at 500 µM [%]>
17

$$$$
>  <compound>
O=C(/C=C/c1ccc(Cl)cc1Cl)NCCCCCO [H-297/20]

>  <inhibition at 500 µM [%]>
20.5

$$$$
>  <compound>
O=C(/C=C/c1ccc(Cl)cc1Cl)N1CCC(O)CC1 [H-310/20]

>  <inhibition at 500 µM [%]>
7.23

$$$$
>  <compound>
O=C(/C=C/c1ccc(Cl)cc1)NCCCCO [H-331/21]

>  <inhibition at 500 µM [%]>
64.3

$$$$

###

Test system: keratinocytes (HaCaT)
protocol.description: Safety, MTT test in keratinocytes
Assay type: cell-based
particulars: 250 μM, 48 hours

>  <compound>
O=C(/C=C/c1ccccc1)NCCCCCO [Compound A-133]

>  <target.under.test>
keratinocytes (HaCaT)

>  <MTT, Keratinocytes (HaCaT)>
95.53 ± 2.80 % of solvent control

$$$$
>  <compound>
O=C(/C=C/c1ccc(Cl)cc1)NCCCCCO [Compound A-111]

>  <target.under.test>
keratinocytes (HaCaT)

>  <MTT, Keratinocytes (HaCaT)>
91.57 ± 2.10 % of solvent control

$$$$
>  <compound>
O=C(/C=C/c1ccc(Cl)cc1)NCCCO [H-330/21]

>  <target.under.test>
keratinocytes (HaCaT)

>  <MTT, Keratinocytes (HaCaT)>
94.89 ± 1.06 % of solvent control

$$$$
>  <compound>
O=C(/C=C/c1ccc(Cl)cc1)NCCO [H-427/21]

>  <target.under.test>
keratinocytes (HaCaT)

>  <MTT, Keratinocytes (HaCaT)>
89.94 ± 4.66 % of solvent control

$$$$
>  <compound>
Cc1ccc(/C=C/C(=O)NCCCCCO)cc1 [H-415/21]

>  <target.under.test>
keratinocytes (HaCaT)

>  <MTT, Keratinocytes (HaCaT)>
88.54 ± 3.74 % of solvent control

$$$$

###

Each entry below carries its reported MTT, Primary melanocytes.
Tested on: primary melanocytes
protocol.description: Safety, MTT test in primary melanocytes
Format: cell-based
particulars: 250 μM, 48 hours
experimental.endpoint: MTT, Primary melanocytes

>  <query.smiles>
O=C(/C=C/c1ccc(Cl)cc1)NCCCCCO

>  <value.measured>
93.39 ± 1.60 % of solvent control

$$$$
>  <query.smiles>
O=C(/C=C/c1ccc(Cl)cc1)NCCO

>  <value.measured>
85.19 ± 2.03 % of solvent control

$$$$
>  <query.smiles>
O=C(/C=C/c1ccccc1)NCCCCCO

>  <value.measured>
88.88 ± 2.26 % of solvent control

$$$$
>  <query.smiles>
O=C(/C=C/c1ccc(Cl)cc1)NCCCO

>  <value.measured>
90.27 ± 2.25 % of solvent control

$$$$
>  <query.smiles>
Cc1ccc(/C=C/C(=O)NCCCCCO)cc1

>  <value.measured>
87.64 ± 1.44 % of solvent control

$$$$

###

Each entry below carries its reported Increase in the number of yellow wells compared to the reference level, TA98.
System: S. typhimurium TA98
protocol.description: Ames microplate test, TA98
Format: cell-based, Salmonella typhimurium
particulars: 0.5 mM, without S9
experimental.endpoint: Increase in the number of yellow wells compared to the reference level, TA98

>  <molecule>
O=C(/C=C/c1ccc(Cl)cc1)NCCCCCO [Compound A-111]

>  <target.under.test>
S. typhimurium TA98

>  <value.measured>
0.7

$$$$
>  <molecule>
CC(CO)NC(=O)/C=C/c1ccc(Cl)cc1 (stereo not drawn) [Compound A-102]

>  <target.under.test>
S. typhimurium TA98

>  <value.measured>
0.24

$$$$
>  <molecule>
O=C(/C=C/c1ccccc1)NCCCCCO [Compound A-133]

>  <target.under.test>
S. typhimurium TA98

>  <value.measured>
0.44

$$$$
>  <molecule>
Cc1ccc(/C=C/C(=O)NCCCCCO)cc1 [H-415/21]

>  <target.under.test>
S. typhimurium TA98

>  <value.measured>
0.47

$$$$
>  <molecule>
CCC(O)CNC(=O)/C=C/c1ccc(Cl)cc1 (stereo not drawn) [Compound A-67]

>  <target.under.test>
S. typhimurium TA98

>  <value.measured>
0.27

$$$$
>  <molecule>
O=C(/C=C/c1ccccc1)NCCCCCCO [H-425/21]

>  <target.under.test>
S. typhimurium TA98

>  <value.measured>
0.27

$$$$

###

Test system: fibroblasts (BJ)
protocol.description: Safety, LDH test in fibroblasts
Type: cell-based
particulars: 100 μM, 48 hours, vs Triton X-100
experimental.endpoint: LDH, Fibroblasts (BJ)

>  <query.smiles>
Cc1ccc(/C=C/C(=O)NCCCCCO)cc1

>  <experimental.endpoint>
LDH, Fibroblasts (BJ)

>  <value.measured>
8.81 percentage of positive control

$$$$
>  <query.smiles>
O=C(/C=C/c1ccc(Cl)cc1)NCCO

>  <experimental.endpoint>
LDH, Fibroblasts (BJ)

>  <value.measured>
2.75 percentage of positive control

$$$$
>  <query.smiles>
O=C(/C=C/c1ccccc1)NCCCCCO

>  <experimental.endpoint>
LDH, Fibroblasts (BJ)

>  <value.measured>
5.00 percentage of positive control

$$$$
>  <query.smiles>
O=C(/C=C/c1ccc(Cl)cc1)NCCCCCO

>  <experimental.endpoint>
LDH, Fibroblasts (BJ)

>  <value.measured>
5.25 percentage of positive control

$$$$
>  <query.smiles>
O=C(/C=C/c1ccc(Cl)cc1)NCCCO

>  <experimental.endpoint>
LDH, Fibroblasts (BJ)

>  <value.measured>
4.74 percentage of positive control

$$$$

###

Each entry below carries its reported Increase in the number of yellow wells compared to the reference level, TA1537.
Tested on: S. typhimurium TA1537
protocol.description: Ames microplate test, TA1537
Format: cell-based, Salmonella typhimurium
particulars: 0.5 mM, without S9
experimental.endpoint: Increase in the number of yellow wells compared to the reference level, TA1537

>  <compound>
O=C(/C=C/c1ccccc1)NCCCCCO [Compound A-133]

>  <target.under.test>
S. typhimurium TA1537

>  <value.measured>
1.07

$$$$
>  <compound>
CCC(O)CNC(=O)/C=C/c1ccc(Cl)cc1 (stereo not drawn) [Compound A-67]

>  <target.under.test>
S. typhimurium TA1537

>  <value.measured>
0.00

$$$$
>  <compound>
O=C(/C=C/c1ccccc1)NCCCCCCO [H-425/21]

>  <target.under.test>
S. typhimurium TA1537

>  <value.measured>
0.09

$$$$
>  <compound>
O=C(/C=C/c1ccc(Cl)cc1)NCCCCCO [Compound A-111]

>  <target.under.test>
S. typhimurium TA1537

>  <value.measured>
0.80

$$$$
>  <compound>
CC(CO)NC(=O)/C=C/c1ccc(Cl)cc1 (stereo not drawn) [Compound A-102]

>  <target.under.test>
S. typhimurium TA1537

>  <value.measured>
0.33

$$$$
>  <compound>
Cc1ccc(/C=C/C(=O)NCCCCCO)cc1 [H-415/21]

>  <target.under.test>
S. typhimurium TA1537

>  <value.measured>
0.33

$$$$
